- assay_info: yeast display, Sf9 membrane polyspecificity reagent, FACS + sequencing; frameworks hold sequencing errors

{"sequence_input": "QVQLVESGGGLVQAGGSLRLSCAASGFTFGWYAMGWYRQAPGKERELVATISWSGSSTYYADSVKGRFTISRDNAKNTVYLQMNSLKPEDTAVYYCNAVYGRFVVLRYDYWGQGTQVTVSS", "polyreactivity (PSR sort gate)": "high polyreactivity"}
{"sequence_input": "QVQLVESGGGLVQAGGSLRLSCAASGFIFRWYAMGWYRQAPGKERELVAAITWRGGSTYADSVKGRFTISRDNAKNTVYLQMNSLKPEDTAVCYCAAETHRRYDYWGQGTQVTVSS", "polyreactivity (PSR sort gate)": "high polyreactivity"}
{"sequence_input": "QVQLVESGGGLVQAGGSLRLSCAASRSIFSYNAMGWYRQAPGKGREFVAAITSSGTRKYYADSVQGRFTISRDNAMNTVYLQLNSLKPEDTAVYYCAADLRYDYWGQGTQVPVSS", "polyreactivity (PSR sort gate)": "high polyreactivity"}
{"sequence_input": "QVQLVESGGGLVQAGGSLRLSCAASGLTFDSYTMGWYRQAPGKERELVAAITNSGGSTYYADSVKGRFTISRDNAKNTVYLQMNSLKPEDTAVYYCAAFRTSRLYGGSYGYWGQGTQVTVSS", "polyreactivity (PSR sort gate)": "high polyreactivity"}
{"sequence_input": "QVQIVESWGCLVQAGGSLRLSCAASVNIFNVNAMGWSRQAPRKEREFLAAITSGANSYYADSEKGRFTISRDNAKNSVFLQMNSLKPEDTAVYYCAAEDGSYYRRNRFYYWGQGTQVTVSS", "polyreactivity (PSR sort gate)": "high polyreactivity"}
{"sequence_input": "QVQLVESGGGLVQAGGSLRLSCAASGSTFDYYTMGWYRQAPGKERELVAAISYSGSRTYYADSVKGRFTISRDNAKNTVYLQMNSLKPEDTAVYYCAAVYRAKYGYWGQGTQVTVSS", "polyreactivity (PSR sort gate)": "high polyreactivity"}
{"sequence_input": "QVQLVESGGCLVQAGCSLRLSCAASGSTLWWYDMGWYRQAPGKERELVAAINSGGSTNYADSVKGRFTISRDNAKNTVYLQMNSLKAEDTAVYYCNTDGEVTYDYWGQGTQVTVSS", "polyreactivity (PSR sort gate)": "low polyreactivity"}
{"sequence_input": "QVQLVESGGRLVQAGGSLRLSCAASGRISPYAMGWYRQAPGKERELVAAISSRGGRTYYADSVKGRWTISRDNAKNTVYLEMNSQKPEDTAVYYCAVYPRSTLRTFQRDYWGQGTQVTVSS", "polyreactivity (PSR sort gate)": "high polyreactivity"}
{"sequence_input": "QVQLVESGGGLDQAGGSLRLSCAASGSIFMPNAMGWYRQAPGKERELVAAISASTSSTYYADSVKGRFTISRDNAKNTVYLEMNSLKPEDTGVYYCAAYYVFFYLEDVYYEYDYWGQGTQVTVSS", "polyreactivity (PSR sort gate)": "high polyreactivity"}
{"sequence_input": "QVQLVESGGRLVQAGGSLLLSCAASGRIFDKYAMGWYRQAPGKERELVAAITYIDSGTYYADSVKGRFTISRDNAKNTVYLQMNSLKPEDTAVYYCAARYPSDYDYWGQDTQVTVSS", "polyreactivity (PSR sort gate)": "low polyreactivity"}
{"sequence_input": "QVQLVESGGGLVQAGGSLRLSCAASGGTFSYYAMGWYRQAPGKERELVAAINWSGASTYYADSVKGRFTISRDNAKNTVYLQMNSLKPEDTAVYYCNVYLGILYKYDYWGQGTQVTVSS", "polyreactivity (PSR sort gate)": "low polyreactivity"}
{"sequence_input": "QVQLVESGGGLVQAGGSLRFSCAASGRTFGINAMGWYRQAPGKERELVAVITFGDGGTYYADSVKGRFTISRDNAKNTVYLQMNSLNPEDTAVYYCSTDYQSTSVWGGHFVINPYDYWGQGTQVTVSS", "polyreactivity (PSR sort gate)": "low polyreactivity"}
{"sequence_input": "QVQLVESGGGLVQAGGSLRLSCAASGRIFTVYAMGWYRQAPGQERELVAAISRGGSTYADSVKGRFTISRDNAKISVYLQMNSLKPEDTAVYYCAAVNFRKGEDYWGQGTQVTVSS", "polyreactivity (PSR sort gate)": "high polyreactivity"}
{"sequence_input": "QVQLVESGGGLVQAGGSLRLSCAASGFIFQGYVMGWYRQAPGKEREFVAAISRSGGTTFYADSVKGRFTISRDNAKNTVYLQMNSLKPEDTAVYYCNRARLGRPGYDYWGQGTQVTVSS", "polyreactivity (PSR sort gate)": "high polyreactivity"}
{"sequence_input": "QVQLVESGGGLVQAGGSLRLSCAASGSIFEGYVMGWYRQAPGKERELVAGISRGSRTNYADSVKGRFTISRDNAKNTVYLQMNSLKPEDTAVYYCAAEYWGVYRGFVSSFDYWGQGTQVTVSS", "polyreactivity (PSR sort gate)": "high polyreactivity"}
{"sequence_input": "QVQLVESGGGLVQAGGSLRLSCAASGSTFNRNAMGWYRQAPGKERDLVAAISWRGDTTSYADSVKGRSTISRDNAKNTFYLQMNSLNPEDTAVYYCATAHDYAFYRYWYVPSEYNYWGQGTQVTVSS", "polyreactivity (PSR sort gate)": "low polyreactivity"}
{"sequence_input": "QVQLVESGGGLVQAGGSLRISCAASGITFSYYAMGWYTPAPGKERELVAAINSGGGSTYYADSVKGRFTISRDNAKNTVYLQMNSLKPEDTAVYYCSARYRSRYDYYYDRDYWGQGTQVTVSS", "polyreactivity (PSR sort gate)": "low polyreactivity"}
{"sequence_input": "QVQLVESGGGLVQAGGSLRLSCAASGSTFHSNAMGWYRQAPGKEREVVATISFGGGSKYYADSVKGRFTISRDNAKNTVYLQMNSLKPEDTAVYYCARDQTFGPCPYVWYYYPGYDYWGQGTQVTVSS", "polyreactivity (PSR sort gate)": "low polyreactivity"}
{"sequence_input": "EVQLVESGGGLVQAGGSLRISCAASGRIFNFYAMGWYRQAPGKEREFVASIRSNVGSTYYADSVKGRFTISRDNAKNTVYLQMNSLKPEDTAVYYCNARYYWYRGYDYWGQGTQVTVSS", "polyreactivity (PSR sort gate)": "high polyreactivity"}
{"sequence_input": "QVQLEESGGGLFQAGGSLRLSCAASGRTFRLYDMGWYRQAPGKERELVAAISKSGGSTYYADSVKGRFTISRDYAKNPVYVQMNSLKPEDTAVYYCAAGTRVCEYDYWGQGTQVTVSS", "polyreactivity (PSR sort gate)": "high polyreactivity"}
{"sequence_input": "QVQLVESGGGLVQAGGSLRLSCAASGITFVRYAMGWYRQAPGKERELVAAISSGGSTHYADSVKGRFTISRDNAKNTVYLQMNSLKPEDTAVYYCAAQWTESSLYRFGYLGQGTQVTVSS", "polyreactivity (PSR sort gate)": "high polyreactivity"}
